molecular target: T1, Soluble IGF-1R (sIGF-1R), R&D Systems Cat. # 391-GR/CF (UniProt P08069 31-935, limits assumed); assay: phage ELISA
T1 construct: extracellular domain
measured.attribute: IGF-1R/IR comparison
Lab note: record the figure alone, no unit after it.

Here is how some binders turned out for IGF-1R/IR comparison.
> print(dat)
                                     binder  observed.value
1  LGYQEPFQQNFYDWFVRQVSGAENAG [H2CA-3-E8-IGFR]             2.9
2         IIGGFYSYFNSVLRLGT [NNRPγ-4-A1-IR]               6
3  YRGMLVLGRSSDGAGKVAFERPARIGQTVFAVNFYDWFV [A6L-0-E6-IR]              17
4   PAGPCGFYCGLGLLLHGDQSP [20E2B-4-H8-IGFR]             5.9
5  RGAVAGFHDQFYDWFDRQVSRVHKFG [H2CA-4-H9-IGFR]               3

INPUT: Return IGF-1R/IR comparison for the following binder: VNQSGSIHENFYDWFERQVSHQRGVR [H2CA-4-F10-IGFR]
OUTPUT: 5.9

INPUT: Return IGF-1R/IR comparison for the following binder: EGSGFYGYFFSLLGLQG [NNRPγ-4-A9-IR]
OUTPUT: 7.1

INPUT: Return IGF-1R/IR comparison for the following binder: VATSQGFYSGLSELLQGGGNV [20E2B-3-E12-IGFR]
OUTPUT: 7.3

INPUT: Return IGF-1R/IR comparison for the following binder: TLDGGSFEEQFYDWFVRQLSYRTNPD [H2CA-4-G11-IGFR]
OUTPUT: 3.9

INPUT: Return IGF-1R/IR comparison for the following binder: AETSVQVGWIRLQSVWPGEHWNTVDPFYHKLSELLRGSGA [B6L-4-D7-IR]
OUTPUT: 3.4

INPUT: Return IGF-1R/IR comparison for the following binder: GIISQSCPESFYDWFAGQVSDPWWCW [H2CA-4-G9-IGFR]
OUTPUT: 16
